# Target Or System: ScBzz1-D2
# Assay Text: SPOT peptide array binding signal intensity (averaged, normalized) (arbitrary units (background-subtracted, floor 0; scale differs between SH3 domains)); higher = stronger binding of the SH3 domain to the peptide
Assign Satisfied whenever SPOT peptide array binding signal intensity does not fall below 20; assign Not satisfied whenever it does.

AATTSTPPLPRRRAT    Not satisfied

Request: Could you please find out whether NNNKMRPHLPPLSSG has SPOT peptide array binding signal intensity that meets 20 or exceeds it?
Result: Not satisfied
